Documented fold difference in affinity vs original across a set of binders
system: IL-1β (UniProt P01584 117-269)
methodNotes: Biacore, Fab periplasmic extract on IL-1β
reportedMetric: fold difference in affinity vs original (fold)

{"binder": "XPA23 light chain L96T (Fab, V domains shown, Single light chain substitution; Fab in periplasmic extract; also called C5A (XPA23) L96T) VH: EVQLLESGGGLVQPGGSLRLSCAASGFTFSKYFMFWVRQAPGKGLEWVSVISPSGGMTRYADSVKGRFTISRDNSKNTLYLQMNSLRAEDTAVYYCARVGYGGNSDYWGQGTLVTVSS VL: DIQMTQSPSSVSASVGDRLTIICRASQDINRWLAWYQQTPGNAPKLLIHSATSLQSGVPSRFSGSGSGTDFTLTINSLQPEDFATYYCQQADSFPTTFGGGTKVEIK", "reportedMetric": "fold difference in affinity vs original", "reportedResult": 0.06}
{"binder": "XPA23 light chain S93V (Fab, V domains shown, Single light chain substitution; Fab in periplasmic extract; also called C5A (XPA23) S93V) VH: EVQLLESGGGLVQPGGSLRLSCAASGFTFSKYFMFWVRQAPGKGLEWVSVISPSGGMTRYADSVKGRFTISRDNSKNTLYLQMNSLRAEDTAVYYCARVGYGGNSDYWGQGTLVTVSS VL: DIQMTQSPSSVSASVGDRLTIICRASQDINRWLAWYQQTPGNAPKLLIHSATSLQSGVPSRFSGSGSGTDFTLTINSLQPEDFATYYCQQADVFPLTFGGGTKVEIK", "reportedMetric": "fold difference in affinity vs original", "reportedResult": 3.81}
